SYSTEM_NAME: SARS-CoV-2 spike protein trimer, Beta (B.1.351) variant (SARS-CoV-2, UniProt P0DTC2 16-1213)
MEASUREMENT_DESCRIPTION: ELISA, purified IgG
MEASURED_PROPERTY: binding result

- SEQ ID NO 17 (antibody, V domains shown, As m4) VH: EVQLVESGGGLVQPGGSLRLSCTVSGFSLSTYAMSWVRQAPGKGLEWIGVIASNADTYYASWAKGRFTISRDNSKNTLYLQMNSLRAEDTAVYYCARHPGSAGYGYAVYYAMDPWGQGTLVTVSS VL: DIQMTQSPSSLSASVGDRVTITCQASQPIYYGINWYQQKPGKAPKLLIYGHTYRAWGVPSRFSGSGSGTDFTLTISSLQPEDFATYYCQQGYRVGLGFGGGTKVEIK: binds
- SEQ ID NO 16 (antibody, V domains shown, As m4) VH: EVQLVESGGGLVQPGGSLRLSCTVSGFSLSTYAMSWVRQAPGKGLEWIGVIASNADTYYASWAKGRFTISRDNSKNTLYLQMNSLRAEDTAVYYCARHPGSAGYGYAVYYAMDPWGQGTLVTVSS VL: DIQMTQSPSSLSASVGDRVTITCQASQDVKYAINWYQQKPGKAPKLLIYGTSSRGEGVPSRFSGSGSGTDYTLTISSLQPEDFATYYCQQGYVVSIFFGGGTKVEIK: binds
- SEQ ID NO 15 (antibody, V domains shown, As m4) VH: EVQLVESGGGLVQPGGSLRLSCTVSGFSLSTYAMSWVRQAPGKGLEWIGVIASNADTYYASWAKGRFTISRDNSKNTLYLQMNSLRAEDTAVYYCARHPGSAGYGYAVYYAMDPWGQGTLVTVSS VL: DIQMTQSPSSLSASVGDRVTITCQASQKIHYAINWYQQKPGKAPKLLIYGTSYLGGGVPSRFSGSGSGTDFTLTISSLQPEDFATYYCQQGYIVPNSFGGGTKVEIK: binds
- SEQ ID NO 12 (antibody, V domains shown, also called selected clone from LxC libraries; LxC clone) VH: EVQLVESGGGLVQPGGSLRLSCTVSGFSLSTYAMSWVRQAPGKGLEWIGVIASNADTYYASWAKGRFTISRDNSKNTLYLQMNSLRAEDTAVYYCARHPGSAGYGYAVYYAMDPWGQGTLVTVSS VL: DIQMTQSPSSLSASVGDRVTITCQASQPIHYAINWYQQKPGKAPKLLIYGTSHRKMGVPSRFSGSGSGTDYTLTISSLQPEDFATYYCQQGYIVALKFGGGTKVEIK: binds
